Origin of measurements: patent US12152048B2

- experimental_details: Stability in rat liver microsome
- experimental_conditions: without coenzyme, 2 μM, 37° C., 30 minutes
Mark each entry T if its Percentage of the compound remaining in rat liver microsome sits below 0.03%, and F for all others.

A selection of reference data follows.
CN(CC(O)CO)C(=O)OCOc1ccc([N+](=O)[O-])c2cccnc12 (stereo not drawn) : F
CC(C)C(=O)N1CCC[C@H]1C(=O)OCOc1ccc([N+](=O)[O-])c2cccnc12 : F
CC(C)(C)OC(=O)NCCCCCCC(=O)OCOc1ccc([N+](=O)[O-])c2cccnc12 : T

Enquiry: In plain terms, does CCC(CC)C(=O)OC(C)Oc1ccc([N+](=O)[O-])c2cccnc12 (stereo not drawn) come in under 0.03% for Percentage of the compound remaining in rat liver microsome?
Return: F

Enquiry: What do we get for "COC(=O)CN(C)C(=O)Oc1ccc([N+](=O)[O-])c2cccnc12" ?
Return: F

Enquiry: What do we get for "CC(C)C(=O)OCOc1ccc([N+](=O)[O-])c2cccnc12" ?
Return: F

* * *

- experimental_details: Stability in human plasma
- experimental_conditions: 37° C., 15 minutes
# Percentage of the compound remaining in plasma per entry
Field: numeric (%). Do not append units.

Before answering, review these 2 worked examples.
CCC(C)C(C(=O)OC)N(C)C(=O)OCOc1ccc([N+](=O)[O-])c2cccnc12 (centres unmarked) : 98.9
O=[N+]([O-])c1ccc(O)c2ncccc12 : 99.3

Enquiry: For CCC(C)C(NC(=O)OCOc1ccc([N+](=O)[O-])c2cccnc12)C(=O)OC (centres unmarked) , what is its reported Percentage of the compound remaining in plasma?
Return: 91.3

Enquiry: What do we get for "O=C(OCOc1ccc([N+](=O)[O-])c2cccnc12)N1CCOCC1" ?
Return: 93.5

* * *

- experimental_details: Determination of water solubility in phosphate buffer
- Assay type: physicochemical
- experimental_conditions: aqueous buffer, thermodynamic from solid; phosphate buffer pH 7.4, room temperature, 24 hours
Outcome label depends on solubility at 24 h relative to 100 µg/mL: at/above gives 1, below gives 0.

O=C(OCOc1ccc([N+](=O)[O-])c2cccnc12)N1CCOCC1 [Compound 7] : 1
CC(=O)Oc1ccccc1C(=O)OCOc1ccc([N+](=O)[O-])c2cccnc12 [Compound 34] : 0
CC(C)(C)OC(=O)NCCCCCCC(=O)OCOc1ccc([N+](=O)[O-])c2cccnc12 [Compound 12] : 0
CN(CC(O)CO)C(=O)OCOc1ccc([N+](=O)[O-])c2cccnc12 (centres unmarked) [Compound 52] : 1
CC(C)C(=O)OCOc1ccc([N+](=O)[O-])c2cccnc12 [Compound 3] : 0

Enquiry: API: above_or_equal(metric=solubility at 24 h, cutoff=100 µg/mL) for item CC(=O)N(C)CC(=O)OCc1cccnc1N(C)C(=O)OCOc1ccc([N+](=O)[O-])c2cccnc12 [Compound 65]
Return: 1

Enquiry: What do we get for CC(=O)OCOc1ccc([N+](=O)[O-])c2cccnc12 [Compound 1, (5-nitroquinolin-8-yloxy)methyl acetate] ?
Return: 0

Enquiry: What do we get for O=C(COc1ccc(Cl)cc1Cl)OCOc1ccc([N+](=O)[O-])c2cccnc12 [Compound 35] ?
Return: 0

* * *

- experimental_details: Stability in human plasma
- experimental_conditions: 37° C., 60 minutes
Mark each entry t if its Percentage of the compound remaining in plasma sits below 90%, and f for all others.

Enquiry: In plain terms, does CC1CN(C(=O)OCOc2ccc([N+](=O)[O-])c3cccnc23)CCO1 (centres unmarked) come in under 90% for Percentage of the compound remaining in plasma?
Return: f

Enquiry: What do we get for "O=C(OCOc1ccc([N+](=O)[O-])c2cccnc12)N1CCOCC1" ?
Return: f
